target_entity: Focal adhesion kinase 1 (Homo sapiens) (UniProt Q05397)
Sequence (Q05397 whole entry, looked up): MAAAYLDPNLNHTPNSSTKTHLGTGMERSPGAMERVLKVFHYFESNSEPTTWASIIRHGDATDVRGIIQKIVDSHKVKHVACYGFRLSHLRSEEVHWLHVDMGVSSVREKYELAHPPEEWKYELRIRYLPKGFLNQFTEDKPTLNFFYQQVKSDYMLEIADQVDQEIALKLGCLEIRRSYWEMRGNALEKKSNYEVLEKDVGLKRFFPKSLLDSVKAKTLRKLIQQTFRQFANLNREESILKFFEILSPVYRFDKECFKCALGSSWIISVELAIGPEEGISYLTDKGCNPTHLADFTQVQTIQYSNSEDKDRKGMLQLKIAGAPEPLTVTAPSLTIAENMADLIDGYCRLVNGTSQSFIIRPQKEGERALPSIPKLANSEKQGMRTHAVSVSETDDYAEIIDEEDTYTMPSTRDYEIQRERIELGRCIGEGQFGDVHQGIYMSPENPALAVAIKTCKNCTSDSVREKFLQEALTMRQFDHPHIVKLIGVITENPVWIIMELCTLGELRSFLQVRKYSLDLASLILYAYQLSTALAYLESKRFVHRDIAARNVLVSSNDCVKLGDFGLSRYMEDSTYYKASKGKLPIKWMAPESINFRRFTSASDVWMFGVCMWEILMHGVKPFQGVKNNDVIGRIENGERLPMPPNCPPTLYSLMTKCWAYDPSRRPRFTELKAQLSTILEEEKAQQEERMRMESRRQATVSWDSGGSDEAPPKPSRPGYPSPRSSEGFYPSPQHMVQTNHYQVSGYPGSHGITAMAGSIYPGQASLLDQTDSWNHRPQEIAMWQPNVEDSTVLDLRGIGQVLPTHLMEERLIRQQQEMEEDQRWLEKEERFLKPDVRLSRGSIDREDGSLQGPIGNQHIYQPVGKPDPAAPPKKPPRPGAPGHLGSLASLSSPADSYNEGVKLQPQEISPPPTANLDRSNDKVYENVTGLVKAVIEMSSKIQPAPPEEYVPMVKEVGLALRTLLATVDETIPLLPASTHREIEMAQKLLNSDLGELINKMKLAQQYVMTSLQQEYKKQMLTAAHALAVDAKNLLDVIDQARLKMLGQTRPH
test_details: small-molecule microarray binders of FAK, primary screen, biochemical, 635/667 nm fluorescence, BSA, DTT (AID 1130);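 also: composite of spot emission at 667 nm and signal to noise over triplicate slides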
condition_description: PTK2 binding, 635 nm fluorescence, higher = more signal
Is composite z-score at least 0.5? Then True. If not, False.

Some entries whose results are on file:
For this molecule, is measured composite z-score 0.5 or higher? O=C1O[C@H](c2ccccc2)[C@H](c2ccccc2)N2[C@H]1[C@@H](C(=O)Nc1nc3ccccc3s1)[C@]1(C(=O)Nc3ccccc31)[C@H]2c1ccc(OCCO)cc1
True

Now try COC(=O)[C@@]1(Cc2ccc(OC)cc2)[C@H]2c3cc(C(=O)N(C)C)n(C[C@H](O)CO)c3C[C@H]2CN1C(=O)c1ccccc1 .
True

Now try C=CCOC(=O)[C@H]1[C@@H]2C(=O)O[C@@H](c3ccccc3)[C@@H](c3ccccc3)N2[C@@H](c2ccc(OCCOC(=O)[C@H]3C[C@H]4C(=O)N[C@@H](CC(C)C)C(=O)N4[C@H]3c3cccc(OCCO)c3)cc2)[C@]12C(=O)Nc1ccc(I)cc12 .
True

Now try COC(=O)[C@@]1(Cc2ccccc2)[C@H]2c3cc(C(=O)N(C)C)n(CCc4ccc(O)c(OC)c4)c3C[C@H]2CN1C(=O)c1ccccc1 .
False

Now try COc1ccc([Si](C)(C)[C@@H]2[C@@H](CC(=O)N3Cc4ccccc4C[C@H]3CO)O[C@]3(C(=O)N(C)c4ccccc43)[C@H]2C)cc1 .
False

Now try O=C1NC(=O)C2C1C=CC(C(O)c1c(F)cccc1Cl)N2Nc1ccc(Cl)cc1Cl (stereo unspecified) .
True

Now try COc1cc2c(cc1OC)CN(C(=O)[C@@H]1[C@H]3C(=O)O[C@H](c4ccccc4)[C@H](c4ccccc4)N3[C@H](c3ccc(OCCO)cc3)[C@@]13C(=O)Nc1ccccc13)CC2 .
False

Now try COc1ccc([Si](C)(C)[C@@H]2[C@@H](CC(=O)N(CCO)Cc3ccccc3)O[C@]3(C(=O)N(c4ccccc4)c4ccccc43)[C@H]2C)cc1 .
False

More entries:
For this molecule, is measured composite z-score 0.5 or higher? O=C1O[C@@H](c2ccccc2)[C@@H](c2ccccc2)N2[C@@H](c3ccc(OCCO)cc3)[C@]3(C(=O)Nc4ccccc43)[C@@H](C(=O)O)[C@H]12
False

Now try COc1cc(OC)c(C(O)C2C=CC3C(=O)N(C)C(=O)C3N2NC(=O)OC(C)(C)C)cc1Br (stereo unspecified) .
True

Now try [N-]=[N+]=NCc1ccccc1[C@@H]1OC(c2ccc(OCCCO)cc2)=N[C@]1(CCS(=O)(=O)c1ccccc1)C(=O)NCC(O)CO (stereo partly specified) .
True

====

test_details: fission yeast growth modulation, primary screen, strain 972, OD600, 24 h, no modulator (AID 1090);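 also: basal condition with compound alone and no growth modifier present; test concentration not given here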
condition_description: S. pombe 972 growth, higher = more signal, called active from +8 up or from −8 down
Is z-score at least 0.9? Then rule met. If not, rule not met.

For this compound, is measured z-score 0.9 or higher? O=C1O[C@H](c2ccccc2)[C@H](c2ccccc2)N2[C@H]1[C@@H](C(=O)Nc1nc3ccccc3s1)[C@]1(C(=O)Nc3ccc(C#CC4(O)CCCCCC4)cc31)[C@H]2c1ccccc1OCCO
rule met
